system: Alopecurus myosuroides (ALOMY); experiment: Post-emergence herbicidal glasshouse test on Alopecurus myosuroides; format: in vivo; conditions: post-emergence; 1000 g/h; evaluated after 13 days
VALUE_TYPE: POST Application ALOMY herbicidal damage (five point scale)

// known answers, use as guide
| COMPOUND | ENDPOINT_VALUE |
| --- | --- |
| C=Cn1ncc(-c2ccccc2S(C)(=O)=O)c(O)c1=O | 5 (5=80-100% damage) |
| Cc1c(Cl)ccc(-c2cnn(C)c(=O)c2O)c1F | 1 (1=0-19% damage) |
| Cn1ncc(-c2c(Br)cccc2S(C)(=O)=O)c(O)c1=O | 2 (2=20-39% damage) |

Give POST Application ALOMY herbicidal damage (five point scale) for the following compound: Cn1ncc(-c2cccn(Cc3ccccc3)c2=O)c(O)c1=O
1 (1=0-19% damage)

Determine from records and report POST Application ALOMY herbicidal damage (five point scale) for Cn1nc(N)c(-c2ccc(C(F)(F)F)cc2S(C)(=O)=O)c(O)c1=O
5 (5=80-100% damage)

Give the measured POST Application ALOMY herbicidal damage (five point scale) for CCS(=O)(=O)c1ccccc1-c1cnn(COC)c(=O)c1O
3 (3=40-59% damage)

Return the recorded POST Application ALOMY herbicidal damage (five point scale) value; entry: COc1ccc(Cl)c(-c2cnn(C)c(=O)c2O)c1
1 (1=0-19% damage)

Note down POST Application ALOMY herbicidal damage (five point scale) recorded for Cn1ncc(-c2ccc(Cl)cc2C(F)(F)F)c(O)c1=O
2 (2=20-39% damage)

Complete the entry with POST Application ALOMY herbicidal damage (five point scale) for CCCn1ncc(-c2ccc(S(C)(=O)=O)c(C3=NOCC3)c2Cl)c(O)c1=O
5 (5=80-100% damage)

Determine from records and report POST Application ALOMY herbicidal damage (five point scale) for Cn1ncc(-c2ccc(C(F)(F)F)cc2S(=O)(=O)Cc2ccccc2)c(O)c1=O
3 (3=40-59% damage)

Query POST Application ALOMY herbicidal damage (five point scale) for Cc1ccc(F)cc1-c1cnn(C)c(=O)c1O
1 (1=0-19% damage)

* * *

test system: Alopecurus myosuroides (ALOMY); assay: Post-emergence herbicidal glasshouse test on Alopecurus myosuroides; type: in vivo; details: post-emergence; 1000 g/h; evaluated after 13 days
VALUE_TYPE: POST Application ALOMY herbicidal damage (five point scale)

Examples from the recorded data:
| MOLECULE | ENDPOINT_VALUE |
| --- | --- |
| C#Cn1ncc(-c2ccc(C(F)(F)F)cc2S(C)(=O)=O)c(O)c1=O [Compound 2.010] | 5 (5=80-100% damage) |
| Cc1nc(C(C)F)ccc1-c1cnn(C)c(=O)c1O (stereo not drawn) [Compound 1.068] | 3 (3=40-59% damage) |
| CCn1ncc(-c2ccc(C(F)(F)F)nc2S(C)(=O)=O)c(O)c1=O [Compound 4.001] | 5 (5=80-100% damage) |
| COc1ccc(-c2c(C(F)(F)F)ccn(-c3cnn(C)c(=O)c3O)c2=O)cc1 [Compound 7.033] | 5 (5=80-100% damage) |
| Cc1cccn(-c2cnn(C)c(=O)c2O)c1=O [Compound 1.062] | 2 (2=20-39% damage) |
| COCn1ncc(-c2ccc(S(C)(=O)=O)c(C3=NOCC3)c2C)c(O)c1=O [Compound 1.001] | 5 (5=80-100% damage) |
| Cn1ncc(-c2ccc(S(C)(=O)=O)cc2Cl)c(O)c1=O [Compound 1.105] | 2 (2=20-39% damage) |
| Cn1ncc(-c2ccc(S(=O)(=O)N3CCOCC3)cc2S(C)(=O)=O)c(O)c1=O [Compound 2.037] | 3 (3=40-59% damage) |

Give the reported value of POST Application ALOMY herbicidal damage (five point scale) for this record: Cc1c(Cl)cccc1-c1c(C(F)(F)F)ccn(-c2cnn(C)c(=O)c2O)c1=O [Compound 7.030]
5 (5=80-100% damage)

Please give measured POST Application ALOMY herbicidal damage (five point scale) of the following entry: CCC(C)n1ncc(-c2ccc(S(C)(=O)=O)c(C3=NOCC3)c2C)c(O)c1=O (stereo not drawn) [Compound 1.003]
2 (2=20-39% damage)

Specify POST Application ALOMY herbicidal damage (five point scale) for CCn1ncc(-c2ccc(S(C)(=O)=O)c(C3=NOCC3)c2Cl)c(O)c1=O [Compound 1.009] and stop.
5 (5=80-100% damage)

Please give the documented POST Application ALOMY herbicidal damage (five point scale) of Cn1ncc(-c2cccn(-c3cccc([N+](=O)[O-])c3)c2=O)c(O)c1=O [Compound 1.147]
1 (1=0-19% damage)

Query POST Application ALOMY herbicidal damage (five point scale) for COCc1nc(C(F)(F)F)ccc1-c1cnn(C)c(=O)c1O [Compound 1.073]
4 (4=60-79% damage)

* * *

system: Setaria faberi (SETFA); assay: Post-emergence herbicidal glasshouse test on Setaria faberi; format: in vivo; details: post-emergence; 1000 g/h; evaluated after 13 days
VALUE_TYPE: POST Application SETFA herbicidal damage (five point scale)

Identify measured POST Application SETFA herbicidal damage (five point scale) corresponding to Cn1ncc(-c2ccccc2S(C)(=O)=O)c(O)c1=O
5 (5=80-100% damage)

* * *

PRE Application AMARE herbicidal damage (five point scale) listing for selected compounds.
tested on: Amaranthus retoflexus (AMARE); assay: Pre-emergence herbicidal glasshouse test on Amaranthus retoflexus; format: in vivo; settings: pre-emergence; 1000 g/h; evaluated after 13 days

Solved entries (count: 5):
| COMPOUND | ENDPOINT_VALUE |
| --- | --- |
| Cn1ncc(-c2ccc(C(F)(F)F)cc2C(F)(F)F)c(O)c1=O | 5 (5=80-100% damage) |
| Cn1ncc(-c2ccc(C(F)(F)F)n(C)c2=O)c(O)c1=O | 5 (5=80-100% damage) |
| Cn1ncc(-c2c(F)cnc(F)c2F)c(O)c1=O | 1 (1=0-19% damage) |
| CCCCn1cc(C)cc(-c2cnn(C)c(=O)c2O)c1=O | 1 (1=0-19% damage) |
| C=Cn1ncc(-c2ccccc2S(C)(=O)=O)c(O)c1=O | 5 (5=80-100% damage) |

Specify reported PRE Application AMARE herbicidal damage (five point scale) for the compound shown: CC[S+]([O-])c1ccccc1-c1cnn(COC)c(=O)c1O (stereo not drawn)
5 (5=80-100% damage)

Using known records, supply PRE Application AMARE herbicidal damage (five point scale) for C=C(C)c1nn(C)c(=O)c(O)c1-c1ccc(S(C)(=O)=O)c(C2=NOCC2)c1C
5 (5=80-100% damage)

Answer with reported PRE Application AMARE herbicidal damage (five point scale) of Cn1ncc(-c2ccc(C(F)(F)F)nc2C#N)c(O)c1=O
1 (1=0-19% damage)

Indicate its recorded PRE Application AMARE herbicidal damage (five point scale); the compound in question is Cn1ncc(-c2ccc(S(C)(=O)=O)c3c2COC3)c(O)c1=O
5 (5=80-100% damage)

* * *

system: Amaranthus retoflexus (AMARE); assay: Pre-emergence herbicidal glasshouse test on Amaranthus retoflexus; type: in vivo; details: pre-emergence; 1000 g/h; evaluated after 13 days
VALUE_TYPE: PRE Application AMARE herbicidal damage (five point scale)

| COMPOUND | ENDPOINT_VALUE |
| --- | --- |
| Cn1ncc(-n2ccc(C(F)(F)F)c(-c3cccc(C(F)(F)F)c3)c2=O)c(O)c1=O | 5 (5=80-100% damage) |
| CC(C)Oc1nn(C)c(=O)c(O)c1-c1ccc(C(F)(F)F)cc1S(C)(=O)=O | 5 (5=80-100% damage) |
| Cc1c(-c2c(C#N)nn(C)c(=O)c2O)ccc(S(C)(=O)=O)c1C1=NOCC1 | 5 (5=80-100% damage) |
| Cn1ncc(-c2c(Cl)cccc2Cl)c(O)c1=O | 1 (1=0-19% damage) |
| Cn1ncc(-c2ccc(C(F)(F)F)cc2Cl)c(O)c1=O | 5 (5=80-100% damage) |

Retrieve PRE Application AMARE herbicidal damage (five point scale) measured for Cn1ncc(-c2cccn(CC3CC3)c2=O)c(O)c1=O and print it.
1 (1=0-19% damage)

Note down PRE Application AMARE herbicidal damage (five point scale) recorded for CC(C)[S+]([O-])c1ccccc1-c1cnn(C)c(=O)c1O (stereo not drawn)
1 (1=0-19% damage)

Query PRE Application AMARE herbicidal damage (five point scale) for CCS(=O)(=O)c1ccccc1-c1cnn(COC)c(=O)c1O
5 (5=80-100% damage)

For the compound Cn1ncc(-c2cccn(Cc3ccccc3)c2=O)c(O)c1=O , report PRE Application AMARE herbicidal damage (five point scale).
2 (2=20-39% damage)

* * *

test system: Setaria faberi (SETFA); experiment: Post-emergence herbicidal glasshouse test on Setaria faberi; format: in vivo; conditions: post-emergence; 1000 g/h; evaluated after 13 days
VALUE_TYPE: POST Application SETFA herbicidal damage (five point scale)

Please review the entries below; each comes with its answer.
| COMPOUND_STRUCTURE | ENDPOINT_VALUE |
| --- | --- |
| Cn1ncc(-c2ccc(Cl)cc2[N+](=O)[O-])c(O)c1=O | 1 (1=0-19% damage) |
| Cn1ncc(-c2ccc(C(F)(F)F)cc2S(C)(=O)=O)c(OC(=O)c2ccccc2)c1=O | 5 (5=80-100% damage) |
| CC(C)N(C)S(=O)(=O)c1nc(C(F)(F)F)ccc1-c1cnn(C)c(=O)c1O | 5 (5=80-100% damage) |
| Cc1ccc(-c2c(C(F)(F)F)ccn(-c3cnn(C)c(=O)c3O)c2=O)cc1 | 3 (3=40-59% damage) |

State recorded POST Application SETFA herbicidal damage (five point scale) with Setaria faberi (SETFA), entry Cn1ncc(-c2cc3cccnc3nc2C(F)(F)F)c(O)c1=O , no comment.
5 (5=80-100% damage)

Give Setaria faberi (SETFA) POST Application SETFA herbicidal damage (five point scale) for the following molecule: CCCCS(=O)(=O)c1ccccc1-c1cnn(C)c(=O)c1O
2 (2=20-39% damage)

# lookup: Setaria faberi (SETFA) POST Application SETFA herbicidal damage (five point scale), key = CC(C)n1ncc(-c2ccc(S(C)(=O)=O)c(C3=NOCC3)c2Cl)c(O)c1=O
5 (5=80-100% damage)

Given Cn1ncc(-c2ccc(S(C)(=O)=O)c(F)c2Cl)c(O)c1=O , report its POST Application SETFA herbicidal damage (five point scale) on Setaria faberi (SETFA).
1 (1=0-19% damage)

Give POST Application SETFA herbicidal damage (five point scale) for this entry on Setaria faberi (SETFA): Cc1c(-c2c(C3CC3)nn(C)c(=O)c2O)ccc(S(C)(=O)=O)c1C1=NOCC1
4 (4=60-79% damage)

Name the recorded POST Application SETFA herbicidal damage (five point scale) of COCc1ccc(-c2cnn(C)c(=O)c2O)c(S(C)(=O)=O)c1 , assay system Setaria faberi (SETFA).
5 (5=80-100% damage)

Give POST Application SETFA herbicidal damage (five point scale); test system Setaria faberi (SETFA); molecule Cn1ncc(-c2ccc(S(C)(=O)=O)c3c2COC3)c(O)c1=O
2 (2=20-39% damage)
